These measurements were taken from ChEMBL document CHEMBL1128151.

experiment: In vitro inhibitory activity against PAF-induced aggregation of rabbit platelets
measuredQuantity: IC50 (µM)

compound: C[C@@H]1C(=O)O[C@H]2C(O)[C@@]34[C@H]5C[C@@H](C(C)(C)C)[C@]36[C@@H](OC(=O)[C@@H]6O)O[C@@]4(C(=O)O5)[C@@]12O (single isomer, unassigned) [GINKOLIDE B]
unitText: µM
measuredResult: 0.418

====

test system: Mus musculus; experiment: In vivo inhibitory activity (1 mg/kg) against endotoxin-induced hemoconcentration in ICR mice with endotoxin concentration of 55 mg/kg; format: functional
Below, each entry is listed alongside its reported Change of hemoconcentration.
measuredQuantity: Change of hemoconcentration

compound: CCCCCCCCCCCCCC(=O)OC(CCCCCCCCCCC)CC(=O)O[C@@H]1[C@@H](NC(=O)CC(CCCCCCCCCCC)OC(=O)CCCCCCCCCCC)[C@H](O[C@@H]2C[C@H](OC(=O)CC(O)CCCCCCCCCCC)[C@@H](NC(=O)CC(O)CCCCCCCCCCC)[C@@H](O)O2)O[C@H](CO)[C@H]1OP(=O)(O)O.CCCCCCCCCCCCCCCCCCNC(=O)OC[C@H]1C[C@H](COC(=O)N(Cc2cccc[n+]2CC)C(C)=O)C1.[I-] (some centres undefined)
measuredResult: 5.9

compound: CCCCCCCCCCCCCC(=O)OC(CCCCCCCCCCC)CC(=O)OC1C(NC(=O)CC(CCCCCCCCCCC)OC(=O)CCCCCCCCCCC)C(OC2CC(OC(=O)CC(O)CCCCCCCCCCC)C(NC(=O)CC(O)CCCCCCCCCCC)C(O)O2)OC(CO)C1OP(=O)(O)O.CCCCCCCCCCCCCCCCCCNC(=O)OC[C@H]1C[C@H](COC(=O)N(Cc2cccc[n+]2CC)C(C)=O)O1.[I-] (centres undefined)
measuredResult: 12.7

compound: CCCCCCCCCCCCCC(=O)OC(CCCCCCCCCCC)CC(=O)OC1C(NC(=O)CC(CCCCCCCCCCC)OC(=O)CCCCCCCCCCC)C(OC2CC(OC(=O)CC(O)CCCCCCCCCCC)C(NC(=O)CC(O)CCCCCCCCCCC)C(O)O2)OC(CO)C1OP(=O)(O)O.CCCCCCCCCCCCCCCCNC(=O)OC[C@@H]1C[C@@H](COC(=O)N(Cc2cccc[n+]2CC)C(C)=O)S1.[Cl-] (centres undefined)
measuredResult: 12.7

compound: CCCCCCCCCCCCCC(=O)OC(CCCCCCCCCCC)CC(=O)OC1C(NC(=O)CC(CCCCCCCCCCC)OC(=O)CCCCCCCCCCC)C(OC2CC(OC(=O)CC(O)CCCCCCCCCCC)C(NC(=O)CC(O)CCCCCCCCCCC)C(O)O2)OC(CO)C1OP(=O)(O)O.CCCCCCCCCCCCCCCCCCNC(=O)OC[C@@H]1C[C@@H](COC(=O)N(Cc2cccc[n+]2CC)C(C)=O)N1C(C)=O.[Cl-] (centres undefined)
measuredResult: 13.1
